settings: 318.15 K, Pendant drop shape
REPORTED_METRIC: surface tension liquid-gas (mN/m)
Give just the number in mN/m; leave the unit off.

Field: example entries. Status: answers known.
CCCCCCCC[N+](C)(CCCCCCCC)CCCCCCCC.O=S(=O)([N-]S(=O)(=O)C(F)(F)F)C(F)(F)F
26.56
CCn1cc[n+](C)c1.O=S(=O)([N-]S(=O)(=O)C(F)(F)F)C(F)(F)F
34.68
CCCCCCCCOS(=O)(=O)[O-].CCCCn1cc[n+](C)c1 [1-butyl-3-methylimidazolium octyl sulfate]
25.72
CCCC[N+](C)(C)C.O=S(=O)([N-]S(=O)(=O)C(F)(F)F)C(F)(F)F [butyltrimethylammonium bis(trifluoromethylsulfonyl)imide]
31.21
CCOS(=O)(=O)[O-].CCn1cc[n+](C)c1 [1-ethyl-3-methylimidazolium ethyl sulfate]
43.74

Please turn your attention to the following entry.
Exercise: Which value of surface tension liquid-gas has been reported for `CCCC[n+]1ccn(C)c1.O=S(=O)([N-]S(=O)(=O)C(F)(F)F)C(F)(F)F` in the records?
Solution: 31.89

====

details: 328.15 K; 101.33 kPa; Liquid; Vibrating tube method
Below, each of the compounds is paired with its reported mass density value.
Numbers only; they are read as kg/m3.

Please review the following examples before continuing.
CCCCCCCC[N+](C)(CCCCCCCC)CCCCCCCC.O=S(=O)([N-]S(=O)(=O)C(F)(F)F)C(F)(F)F
1082.1
CCCC[n+]1ccn(C)c1.O=S(=O)([N-]S(=O)(=O)C(F)(F)F)C(F)(F)F
1407.9
CCCCCCCCOS(=O)(=O)[O-].CCCCn1cc[n+](C)c1 [1-butyl-3-methylimidazolium octyl sulfate]
1044.3
CCOS(=O)(=O)[O-].CCn1cc[n+](C)c1 [1-ethyl-3-methylimidazolium ethyl sulfate]
1220.6
CCn1cc[n+](C)c1.O=S(=O)([N-]S(=O)(=O)C(F)(F)F)C(F)(F)F
1488.7

Exercise: So what's the measured mass density for this one? CCCC[N+](C)(C)C.O=S(=O)([N-]S(=O)(=O)C(F)(F)F)C(F)(F)F [butyltrimethylammonium bis(trifluoromethylsulfonyl)imide]
Solution: 1367.3

====

Each entry below carries its reported surface tension liquid-gas.
settings: 308.15 K, Pendant drop shape
Note: unit mN/m is implicit; provide only the numeric part.

CCCCCCCCOS(=O)(=O)[O-].CCCCn1cc[n+](C)c1 [1-butyl-3-methylimidazolium octyl sulfate]
26.27
CCOS(=O)(=O)[O-].CCn1cc[n+](C)c1 [1-ethyl-3-methylimidazolium ethyl sulfate]
44.72
CCCC[n+]1ccn(C)c1.O=S(=O)([N-]S(=O)(=O)C(F)(F)F)C(F)(F)F
32.32

Exercise: Return reported surface tension liquid-gas; argument: `CCn1cc[n+](C)c1.O=S(=O)([N-]S(=O)(=O)C(F)(F)F)C(F)(F)F`
Solution: 35.17

Exercise: Ok, now CCCC[N+](C)(C)C.O=S(=O)([N-]S(=O)(=O)C(F)(F)F)C(F)(F)F [butyltrimethylammonium bis(trifluoromethylsulfonyl)imide]
Solution: 32

Exercise: Repeat with `CCCCCCCC[N+](C)(CCCCCCCC)CCCCCCCC.O=S(=O)([N-]S(=O)(=O)C(F)(F)F)C(F)(F)F`
Solution: 27.02

====

conditions: 288.15 K, Pendant drop shape
REPORTED_METRIC: surface tension liquid-gas (mN/m)
Hi! Could you send only the number? It should be in mN/m, unit omitted.

Exercise: Given CCCCCCCCOS(=O)(=O)[O-].CCCCn1cc[n+](C)c1 [1-butyl-3-methylimidazolium octyl sulfate] , state its recorded surface tension liquid-gas.
Solution: 27.29

Exercise: Can you check CCCC[N+](C)(C)C.O=S(=O)([N-]S(=O)(=O)C(F)(F)F)C(F)(F)F [butyltrimethylammonium bis(trifluoromethylsulfonyl)imide] next?
Solution: 33.04

Exercise: What about this compound? `CCCCCCCC[N+](C)(CCCCCCCC)CCCCCCCC.O=S(=O)([N-]S(=O)(=O)C(F)(F)F)C(F)(F)F`
Solution: 28.92

Exercise: Field entry: `CCn1cc[n+](C)c1.O=S(=O)([N-]S(=O)(=O)C(F)(F)F)C(F)(F)F`
Solution: 36.58

Exercise: Try this compound next: `CCCC[n+]1ccn(C)c1.O=S(=O)([N-]S(=O)(=O)C(F)(F)F)C(F)(F)F`
Solution: 33.37

Exercise: Try CCOS(=O)(=O)[O-].CCn1cc[n+](C)c1 [1-ethyl-3-methylimidazolium ethyl sulfate] next.
Solution: 46.04

Attribution: the NIST ThermoML archive (doi:10.1021/je700621d)
